The reported measurements were obtained from patent US20140228377A1.

Molecular target: orexin-2 receptor (hOX2R) (Homo sapiens, UniProt O43614)
Construct: expressed in transfected cells; host or cells: Chinese hamster ovary (CHO) cells
Sequence (O43614 1-444): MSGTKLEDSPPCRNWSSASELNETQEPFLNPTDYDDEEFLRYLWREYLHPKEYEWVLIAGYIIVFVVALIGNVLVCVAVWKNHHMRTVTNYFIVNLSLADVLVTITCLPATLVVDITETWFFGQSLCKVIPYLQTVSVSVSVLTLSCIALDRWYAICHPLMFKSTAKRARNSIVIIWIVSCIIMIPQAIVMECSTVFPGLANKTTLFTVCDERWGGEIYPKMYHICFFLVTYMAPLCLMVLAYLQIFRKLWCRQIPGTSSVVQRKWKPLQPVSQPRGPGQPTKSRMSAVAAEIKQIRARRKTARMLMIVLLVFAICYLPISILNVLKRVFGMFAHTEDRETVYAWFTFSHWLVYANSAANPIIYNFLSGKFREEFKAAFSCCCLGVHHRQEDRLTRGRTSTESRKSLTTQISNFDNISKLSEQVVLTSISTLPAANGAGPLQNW
Assay: Orexin antagonistic activity assay (intracellular Ca2+, FDSS) in CHO cells expressing hOX2R
Format: cell-based
Conditions: CHO cells expressing hOX2R; ligand peptide 3 nM; Fluo-3 maximum fluorescence intensity; read-out: IC50 value OX2
# note: boundary value 7 nM maps to not met; IC50 below it maps to met

Reference set (4 entries):
[[record]]
compound = "Cc1ccc(-c2ncccn2)c(C(=O)N2C[C@H](c3nc4cc(F)c(F)cc4o3)CC[C@H]2C)c1"
experimental_target = "orexin-2 receptor (hOX2R) (Homo sapiens, UniProt O43614)"
category_label = "not met"

[[record]]
compound = "C[C@@H]1CC[C@@H](c2nc3cc(F)ccc3o2)CN1C(=O)c1cc(F)ccc1-n1nccn1"
experimental_target = "orexin-2 receptor (hOX2R) (Homo sapiens, UniProt O43614)"
category_label = "met"

[[record]]
compound = "C[C@@H]1CC[C@@H](c2nc3cc(F)ccc3o2)CN1C(=O)c1cc(Cl)ccc1-c1ncccn1"
experimental_target = "orexin-2 receptor (hOX2R) (Homo sapiens, UniProt O43614)"
category_label = "not met"

[[record]]
compound = "C[C@@H]1CC[C@@H](c2nc3cc(Cl)ccc3o2)CN1C(=O)c1cc(Br)ccc1-n1nccn1"
experimental_target = "orexin-2 receptor (hOX2R) (Homo sapiens, UniProt O43614)"
category_label = "not met"


Dear colleague, could you confirm whether IC50 of Cc1ccc(-c2ncccn2)c(C(=O)N2C[C@H](c3nc4c(F)cc(F)cc4o3)CC[C@H]2C)c1 falls below 7 nM? Thanks. not met

Dear colleague, could you confirm whether IC50 of C[C@@H]1CC[C@@H](c2nc3ccc(F)cc3o2)CN1C(=O)c1cc(Cl)ccc1-c1ncccn1 falls below 7 nM? Thanks. not met

Dear colleague, could you confirm whether IC50 of C[C@@H]1CC[C@@H](c2nc3ccc(Cl)cc3o2)CN1C(=O)c1c(F)cccc1-n1nccn1 falls below 7 nM? Thanks. not met

Dear colleague, could you confirm whether IC50 of Cc1ccc(-n2nccn2)c(C(=O)N2C[C@H](c3nc4cccc(F)c4o3)CC[C@H]2C)c1 falls below 7 nM? Thanks. met

Dear colleague, could you confirm whether IC50 of C[C@@H]1CC[C@@H](c2nc3cc(Cl)ccc3o2)CN1C(=O)c1ccccc1-c1ncccn1 (single isomer, unassigned) falls below 7 nM? Thanks. met

Dear colleague, could you confirm whether IC50 of C[C@@H]1CC[C@@H](c2nc3cc(F)c(F)cc3o2)CN1C(=O)c1cc(Cl)ccc1-c1ncccn1 falls below 7 nM? Thanks. not met

Dear colleague, could you confirm whether IC50 of C[C@@H]1CC[C@@H](c2nc3cc(F)ccc3o2)CN1C(=O)c1cc(Cl)ccc1-n1nccn1 falls below 7 nM? Thanks. met

Dear colleague, could you confirm whether IC50 of C[C@@H]1CC[C@@H](c2nc3cc(Cl)ccc3o2)CN1C(=O)c1ccc(F)cc1-c1ncccn1 falls below 7 nM? Thanks. not met

Dear colleague, could you confirm whether IC50 of C[C@@H]1CC[C@@H](c2nc3cc(Cl)ccc3o2)CN1C(=O)c1ccc(Cl)cc1-n1nccn1 falls below 7 nM? Thanks. not met

Dear colleague, could you confirm whether IC50 of C[C@@H]1CC[C@@H](c2nc3cc(C(F)(F)F)ccc3o2)CN1C(=O)c1cc(Cl)ccc1-c1ncccn1 falls below 7 nM? Thanks. not met

Dear colleague, could you confirm whether IC50 of C[C@@H]1CC[C@@H](c2nc3cc(Cl)ccc3o2)CN1C(=O)c1ccccc1-n1nccn1 (single isomer, unassigned) falls below 7 nM? Thanks. met

###

Recorded pIC50 by entry
Target: human orexin-1 receptor (hOX1R) (Homo sapiens)
Construct: expressed in transfected cells; host or cells: Chinese hamster ovary (CHO) cells
Sequence (O43613 whole entry): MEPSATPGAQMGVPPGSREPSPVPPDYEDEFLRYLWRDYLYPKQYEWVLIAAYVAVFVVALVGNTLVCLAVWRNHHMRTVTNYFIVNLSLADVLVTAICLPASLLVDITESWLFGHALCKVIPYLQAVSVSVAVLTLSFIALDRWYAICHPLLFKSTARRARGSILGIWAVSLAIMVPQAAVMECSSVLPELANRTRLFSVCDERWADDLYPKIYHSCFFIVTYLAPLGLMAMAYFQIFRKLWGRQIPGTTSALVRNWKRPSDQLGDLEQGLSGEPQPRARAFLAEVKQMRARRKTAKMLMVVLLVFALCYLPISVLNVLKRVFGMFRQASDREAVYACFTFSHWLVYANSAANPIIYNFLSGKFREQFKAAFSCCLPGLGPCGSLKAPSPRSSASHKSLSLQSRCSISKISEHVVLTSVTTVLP
Test: Orexin antagonistic activity assay (intracellular Ca2+, FDSS) in CHO cells expressing hOX1R
Type: cell-based
Conditions: CHO cells expressing hOX1R; ligand peptide 300 pM; Fluo-3 maximum fluorescence intensity; read-out: IC50 value OX1
# pIC50 is unitless: minus log10 of the molar concentration; print number only

See these solved cases before continuing.
[[record]]
compound = "Cc1ccc(-c2ncccn2)c(C(=O)N2C[C@H](c3nc4ccc(F)c(F)c4o3)CC[C@H]2C)c1"
measurement = 8.36

[[record]]
compound = "C[C@@H]1CC[C@@H](c2nc3cc(F)ccc3o2)CN1C(=O)c1ccccc1-c1ncccn1"
measurement = 7.17

[[record]]
compound = "C[C@@H]1CC[C@@H](c2nc3cc(F)ccc3o2)CN1C(=O)c1cc(F)ccc1-c1ncccn1"
measurement = 7.60

[[record]]
compound = "Cc1ccc(-n2nccn2)c(C(=O)N2C[C@H](c3nc4cc(F)cc(F)c4o3)CC[C@H]2C)c1"
measurement = 7.61


Per the record, Cc1ccc(-n2nccn2)c(C(=O)N2C[C@H](c3nc4ccc(F)cc4o3)CC[C@H]2C)n1 (single isomer, unassigned) has pIC50 of 6.95

Per the record, Cc1ccc(-c2ncccn2)c(C(=O)N2C[C@H](c3nc4c(Cl)cccc4o3)CC[C@H]2C)c1 has pIC50 of 8.36

Per the record, C[C@@H]1CC[C@@H](c2nc3cc(F)ccc3o2)CN1C(=O)c1ccccc1-n1nccn1 has pIC50 of 7.30

Per the record, Cc1ccc(-n2nccn2)c(C(=O)N2C[C@H](c3nc4cc(F)c(F)cc4o3)CC[C@H]2C)n1 has pIC50 of 7.01

Per the record, Cc1ccc(-n2nccn2)c(C(=O)N2C[C@H](c3nc4ccc(Cl)cc4o3)CC[C@H]2C)n1 has pIC50 of 8.00

Per the record, Cc1ccc(-n2nccn2)c(C(=O)N2C[C@H](c3nc4cccc(F)c4o3)CC[C@H]2C)c1 has pIC50 of 8.07

###

Target: human orexin-1 receptor (hOX1R) (Homo sapiens)
Construct: expressed in transfected cells; host or cells: Chinese hamster ovary (CHO) cells
Test: Orexin antagonistic activity assay (intracellular Ca2+, FDSS) in CHO cells expressing hOX1R
Type: cell-based
Conditions: CHO cells expressing hOX1R; ligand peptide 300 pM; Fluo-3 maximum fluorescence intensity; read-out: IC50 value OX1
# note: boundary value 40 nM maps to FALSE; IC50 below it maps to TRUE

Reference set (4 entries):
[[record]]
compound = "Cc1ccc(-n2nccn2)c(C(=O)N2C[C@H](c3nc4cc(F)ccc4o3)CC[C@H]2C)n1 (single isomer, unassigned) [Example 11]"
category_label = "FALSE"

[[record]]
compound = "Cc1ccc(-n2nccn2)c(C(=O)N2C[C@H](c3nc4ccc(F)c(F)c4o3)CC[C@H]2C)c1 [Example 58]"
category_label = "TRUE"

[[record]]
compound = "C[C@@H]1CC[C@@H](c2nc3cc(Cl)ccc3o2)CN1C(=O)c1cc(C#N)ccc1-n1nccn1 [Example 21]"
category_label = "FALSE"

[[record]]
compound = "Cc1ccc(-c2ncccn2)c(C(=O)N2C[C@H](c3nc4ccc(Cl)cc4o3)CC[C@H]2C)c1 [Example 44]"
category_label = "TRUE"


Dear colleague, could you confirm whether IC50 of C[C@@H]1CC[C@@H](c2nc3cc(C(F)(F)F)ccc3o2)CN1C(=O)c1cc(Cl)ccc1-c1ncccn1 [Example 39] falls below 40 nM? Thanks. FALSE

Dear colleague, could you confirm whether IC50 of Cc1ccc(-c2ncccn2)c(C(=O)N2C[C@H](c3nc4cc(C(F)(F)F)ccc4o3)CC[C@H]2C)c1 [Example 37] falls below 40 nM? Thanks. TRUE

Dear colleague, could you confirm whether IC50 of C[C@@H]1CC[C@@H](c2nc3cc(Cl)ccc3o2)CN1C(=O)c1cc(Cl)ccc1-c1ncccn1 [Example 13] falls below 40 nM? Thanks. TRUE

Dear colleague, could you confirm whether IC50 of Cc1ccc(-c2ncccn2)c(C(=O)N2CC(c3nc4cc(Cl)ccc4o3)CC[C@H]2C)n1 (single isomer, unassigned) [Example 4] falls below 40 nM? Thanks. TRUE

Dear colleague, could you confirm whether IC50 of Cc1ccc(-c2ncccn2)c(C(=O)N2C[C@H](c3nc4cc(C#N)ccc4o3)CC[C@H]2C)c1 [Example 57] falls below 40 nM? Thanks. FALSE

Dear colleague, could you confirm whether IC50 of C[C@@H]1CC[C@@H](c2nc3cc(F)c(F)cc3o2)CN1C(=O)c1cc(F)ccc1-c1ncccn1 [Example 52] falls below 40 nM? Thanks. FALSE

Dear colleague, could you confirm whether IC50 of Cc1ccc(-c2ncccn2)c(C(=O)N2C[C@H](c3nc4c(F)cc(F)cc4o3)CC[C@H]2C)c1 [Example 61] falls below 40 nM? Thanks. FALSE
